- Test system: SW620 cells
- assay-name: Inhibitory effect on SW620 cells (cell survival rate at 48 h)
- Format: cell-based
- assay-context: Homo sapiens, SW-620, 48 h, SW620, 5000 cells per well, read-out: IC50, inhibitory effects on SW620 cells
Task for the reader: assign each of the following compounds its reported pIC50.
A value of pIC50 is the negative decimal logarithm of a concentration given in moles per litre.

Could you tell me which pIC50 is on file for CCc1cc2c(cc1CC)CC(NC[C@H](O)c1ccc(OCc3ccccc3)c3[nH]c(=O)ccc13)C2 [LYW1, reference compound] ?
5.45

What does the record list as pIC50 for CCc1cc2c(cc1CC)CC(NC[C@H](O)c1ccc(OCc3cccc(F)c3)c3[nH]c(=O)ccc13)C2 ?
5.56

Look up pIC50 for this compound: CCc1cc2c(cc1CC)CC(NC[C@@H](O)c1ccc(OCc3cccc(F)c3)c3[nH]c(=O)ccc13)C2
5.51

For the compound CCc1cc2c(cc1CC)CC(NC[C@@H](O)c1ccc(OCc3ccc(C)cc3)c3[nH]c(=O)ccc13)C2 , what pIC50 is on record?
5.54

Please give the measured pIC50 for this compound: CCc1cc2c(cc1CC)CC(NC[C@@H](O)c1ccc(OCc3cc(F)cc(F)c3)c3[nH]c(=O)ccc13)C2
5.50

Which pIC50 reading was recorded for the compound CCc1cc2c(cc1CC)CC(NC[C@@H](O)c1ccc(OCc3ccc(F)c(F)c3)c3[nH]c(=O)ccc13)C2 ?
5.38

Looking for the measured pIC50 of CCc1cc2c(cc1CC)CC(NC[C@H](O)c1ccc(OCc3ccc(F)cc3)c3[nH]c(=O)ccc13)C2 , can you help?
5.06

Which pIC50 is reported for this compound? CCc1cc2c(cc1CC)CC(NC[C@H](O)c1ccc(OCc3ccc(C)cc3)c3[nH]c(=O)ccc13)C2
5.53

Given the entry CCc1cc2c(cc1CC)CC(NC[C@@H](O)c1ccc(OCc3c(F)c(F)c(F)c(F)c3F)c3[nH]c(=O)ccc13)C2 , report its measured pIC50.
5.22

* * *

- System: RKO cells
- assay-name: Inhibitory effect on RKO cells (cell survival rate at 48 h)
- Type: cell-based, Human
- assay-context: Homo sapiens, 48 h, procedures as for SW620, 48 h, read-out: IC50, inhibitory effects on RKO cells
value-kind: pIC50
// pIC50 here means minus log10 of the molar concentration (mol/L)

Reported pIC50, compound CCc1cc2c(cc1CC)CC(NC[C@H](O)c1ccc(OCc3ccc(F)cc3)c3[nH]c(=O)ccc13)C2 : ____
5.25

Value lookup for pIC50; key = CCc1cc2c(cc1CC)CC(NC[C@H](O)c1ccc(OCc3ccccc3)c3[nH]c(=O)ccc13)C2 [LYW1, reference compound]
5.69

Give the measured pIC50 of CCc1cc2c(cc1CC)CC(NC[C@H](O)c1ccc(OCc3cccc(F)c3)c3[nH]c(=O)ccc13)C2 .
5.51

* * *

Please provide measured pIC50 for the entries that follow.
- Test system: HT29 cells
- assay-name: Inhibitory effect on HT29 cells (cell survival rate at 48 h)
- Format: cell-based, Human
- assay-context: Homo sapiens, HT-29, 48 h, HT29, procedures as for SW620, 48 h; read-out: IC50, inhibitory effects on HT29 cells
// field semantics: pIC50 = negative decimal log of concentration (mol/L)

Consider the molecule CCc1cc2c(cc1CC)CC(NC[C@H](O)c1ccc(OCc3cccc(F)c3)c3[nH]c(=O)ccc13)C2 and give its measured pIC50.
5.57

# pIC50 lookup, item CCc1cc2c(cc1CC)CC(NC[C@H](O)c1ccc(OCc3ccc(F)cc3)c3[nH]c(=O)ccc13)C2
5.33

// query pIC50 value for entry CCc1cc2c(cc1CC)CC(NC[C@H](O)c1ccc(OCc3ccccc3)c3[nH]c(=O)ccc13)C2 [LYW1, reference compound]
5.62

* * *

- System: HT29 cells
- assay-name: Inhibitory effect on HT29 cells (cell survival rate at 48 h)
- Format: cell-based, Human
- assay-context: HT29, procedures as for SW620, 48 h; read-out: IC50, inhibitory effects on HT29 cells
value-kind: IC50 (µM)
The answer is to be given in µM; state only the numeric part.

Endpoint output: IC50 of CCc1cc2c(cc1CC)CC(NC[C@H](O)c1ccc(O)c3[nH]c(=O)ccc13)C2 [Indacaterol, reference compound] . Value?
12.7

* * *

- Test system: RKO cells
- assay-name: Inhibitory effect on RKO cells (cell survival rate at 48 h)
- Format: cell-based, Human
- assay-context: Homo sapiens, procedures as for SW620, 48 h, read-out: IC50, inhibitory effects on RKO cells
value-kind: IC50 (nM)
Your answer is read as nM, so omit the unit and give the number.

# lookup: IC50 of CCc1cc2c(cc1CC)CC(NC[C@@H](O)c1ccc(OCc3ccc(F)cc3)c3[nH]c(=O)ccc13)C2 [Compound I1]
1420
